System: E. coli CDC 0069 (EC1106), NDM-1
Assay: MIC, reference strain
Type: cell-based
Conditions: Escherichia coli, BLI at the fixed concentration in brackets, read-out: MIC
readout name: MIC (µg/mL)
Answers are plain numbers, in µg/mL.

O=C(O)c1c(F)ccc2c1OB(O)[C@@H]1C[C@H]21 ... 16

Please state MIC for every compound in the list that follows.
1. C[C@@H](O)[C@H]1C(=O)N2C(C(=O)O)=C(SCCN=CN)C[C@H]12
2. NC(=O)[C@@H]1CC[C@@H]2CN1C(=O)N2OS(=O)(=O)O

Ans:
16
8

----------
System: Escherichia coli NCTC 13353 (ECM7514), CTX-M-15
Test: MIC, reference strain
Type: cell-based
Conditions: Escherichia coli, NCTC13353; CTX-M-15; BLI at the fixed concentration in brackets; read-out: MIC
Field: MIC. Provide a value for each of the molecules that follow.

Study these solved cases before continuing.
O=C(O)c1c(F)ccc2c1OB(O)[C@@H]1C[C@H]21 ... 8 µg/mL
O=C(NC1CCNCC1)[C@@H]1CC[C@@H]2CN1C(=O)N2OS(=O)(=O)O ... > 64 µg/mL
CC(C)(O/N=C(\C(=O)N[C@@H]1C(=O)N2C(C(=O)[O-])=C(C[n+]3ccccc3)CS[C@H]12)c1csc(N)n1)C(=O)O ... 64 µg/mL
C[C@@H](O)[C@H]1C(=O)N2C(C(=O)O)=C(S[C@@H]3CN[C@H](C(=O)N(C)C)C3)[C@H](C)[C@H]12 ... ≤ 0.03 µg/mL

Answer for every listed entry: what is its MIC? The entries follow.
1. CO/N=C(\C(=O)N[C@@H]1C(=O)N2C(C(=O)[O-])=C(C[N+]3(C)CCCC3)CS[C@H]12)c1csc(N)n1 [FEP, cefepime]
2. NC(=O)[C@@H]1CC[C@@H]2CN1C(=O)N2OS(=O)(=O)O
3. O=C(O)C[C@@H]1CC[C@H](NC(=O)Cc2cccs2)B(O)O1
4. Cn1c(N)c(NC(=O)NCCN)c[n+]1CC1=C(C(=O)O)N2C(=O)[C@@H](NC(=O)/C(=N\OC(C)(C)C(=O)[O-])c3nsc(N)n3)[C@H]2SC1

Ans:
1. > 64 µg/mL
2. 16 µg/mL
3. > 64 µg/mL
4. > 64 µg/mL

----------
Target: IMP-26 (Pseudomonas aeruginosa)
Sequence (D0V558 entry or part of it): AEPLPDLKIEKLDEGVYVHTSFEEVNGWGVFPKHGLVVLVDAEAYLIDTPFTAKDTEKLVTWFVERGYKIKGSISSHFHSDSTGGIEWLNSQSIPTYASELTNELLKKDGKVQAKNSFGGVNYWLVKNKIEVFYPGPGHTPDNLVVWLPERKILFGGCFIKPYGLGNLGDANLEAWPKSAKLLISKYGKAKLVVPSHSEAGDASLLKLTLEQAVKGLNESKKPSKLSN
Test: Ki of metallo-β-lactamase inhibition, purified enzyme
Conditions: 10-minute preincubation; nitrocefin substrate
readout name: Ki

Value of Ki reported for the molecule NCCN[C@H]1CC[C@H](CC(=O)N[C@H]2Cc3cccc(C(=O)O)c3OB2O)CC1 is > 20 µM

----------
Target: P99 (Enterobacter cloacae)
Sequence (P05364 21-381): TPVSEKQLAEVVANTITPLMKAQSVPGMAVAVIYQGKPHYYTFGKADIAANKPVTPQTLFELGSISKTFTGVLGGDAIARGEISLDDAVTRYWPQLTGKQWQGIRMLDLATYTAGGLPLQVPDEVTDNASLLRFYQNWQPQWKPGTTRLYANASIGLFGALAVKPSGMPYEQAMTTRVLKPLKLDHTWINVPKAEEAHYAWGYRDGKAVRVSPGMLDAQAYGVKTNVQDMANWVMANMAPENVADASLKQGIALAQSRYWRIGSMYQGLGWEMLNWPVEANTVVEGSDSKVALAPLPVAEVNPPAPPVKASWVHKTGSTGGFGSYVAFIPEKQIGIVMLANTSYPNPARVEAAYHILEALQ
Test: Ki app of β-lactamase inhibition, purified enzyme
Type: biochemical
Settings: 10-minute preincubation; nitrocefin substrate; read-out: Ki app
readout name: Ki (nM)
Give bare numbers, in nM.

Recorded results for 2 compounds are shown here.
NCCN[C@H]1CC[C@H](CC(=O)N[C@H]2Cc3cccc(C(=O)O)c3OB2O)CC1 [Taniborbactam, taniborbactam] ... 2.4
CC1=C[C@@H]2CN(C(=O)N2OS(=O)(=O)O)[C@@H]1C(N)=O [Durlobactam, durlobactam] ... 0.17

Could you now consider this next compound?
Per the records, this compound ( O=C(NC1CCNCC1)[C@@H]1CC[C@@H]2CN1C(=O)N2OS(=O)(=O)O [Relebactam, relebactam] ) has Ki equal to 14

Cited source: paper PMC10648875
